target: UniProtKB Q13639; assay: Evaluation of agonistic activity in CHO-K1 cells expressing human 5-HT4(a) (GeneBlAzer HTR4-CRE-bla CHO-K1, beta-lactamase reporter); conditions: CHO-K1 cells stably expressing human 5-HT4(a)
Sequence (Q13639 1-387 isoform Q13639-2): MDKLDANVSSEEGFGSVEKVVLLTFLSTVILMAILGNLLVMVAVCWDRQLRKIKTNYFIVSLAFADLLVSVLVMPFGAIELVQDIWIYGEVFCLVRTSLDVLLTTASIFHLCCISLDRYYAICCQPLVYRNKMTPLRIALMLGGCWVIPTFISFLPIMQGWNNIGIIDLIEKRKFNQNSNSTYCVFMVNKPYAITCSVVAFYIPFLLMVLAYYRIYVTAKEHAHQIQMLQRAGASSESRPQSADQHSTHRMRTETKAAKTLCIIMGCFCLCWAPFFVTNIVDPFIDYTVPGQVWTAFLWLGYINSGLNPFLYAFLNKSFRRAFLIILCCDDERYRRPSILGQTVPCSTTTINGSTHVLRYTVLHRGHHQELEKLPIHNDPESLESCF
Where a name gives a salt, the structure may show the parent alone.
Outcome Measure: EC50 (nM)

Compound	Outcome Measure	Test Value
CCCc1cc(N2CC[C@H](NC(=O)CN3CCCCC3)C2)nc(Nc2cccc(C#N)c2)n1	EC50	0.25

P: CCCc1cc(N2CC[C@H](NC)C2)nc(Nc2ccc(N)c([N+](=O)[O-])c2)n1
Q: CCCc1cc(N2CC[C@H](NCc3ccc[nH]3)C2)nc(Nc2ccc(C)c(C#N)c2)n1
R: CCCCc1cc(N2CC[C@H](NCC)C2)nc(Nc2ccc(N)c([N+](=O)[O-])c2)n1
S: CCCc1cc(N2CC[C@H](NCC3CC3)C2)nc(Nc2ccc(Cl)c([N+](=O)[O-])c2)n1
T: CCCc1cc(N2CC[C@H](N)C2)nc(Nc2ccc(F)c(N)c2)n1 [Example 370, dihydrochloride]
[ask] Arrange these compounds by their EC50, starting with the largest number. Your answer should be the labels, listed in the requested order.
[reply] P, T, Q, S, R
(P: 0.229 nM, T: 0.015 nM, Q: 0.0074 nM, S: 0.0046 nM, R: 0.0019 nM)
